Attribution: ChEMBL document CHEMBL3988442

biological target: Protein translocase subunit SecA (Escherichia coli (strain K12)) (UniProt P10408); test: Assay to Identify E. coli SecA ATPase Inhibitors; assay type: functional; set-up: scale not given: direction of the effect not stated beside the values; conditions: 30 µM
Sequence (P10408 whole entry): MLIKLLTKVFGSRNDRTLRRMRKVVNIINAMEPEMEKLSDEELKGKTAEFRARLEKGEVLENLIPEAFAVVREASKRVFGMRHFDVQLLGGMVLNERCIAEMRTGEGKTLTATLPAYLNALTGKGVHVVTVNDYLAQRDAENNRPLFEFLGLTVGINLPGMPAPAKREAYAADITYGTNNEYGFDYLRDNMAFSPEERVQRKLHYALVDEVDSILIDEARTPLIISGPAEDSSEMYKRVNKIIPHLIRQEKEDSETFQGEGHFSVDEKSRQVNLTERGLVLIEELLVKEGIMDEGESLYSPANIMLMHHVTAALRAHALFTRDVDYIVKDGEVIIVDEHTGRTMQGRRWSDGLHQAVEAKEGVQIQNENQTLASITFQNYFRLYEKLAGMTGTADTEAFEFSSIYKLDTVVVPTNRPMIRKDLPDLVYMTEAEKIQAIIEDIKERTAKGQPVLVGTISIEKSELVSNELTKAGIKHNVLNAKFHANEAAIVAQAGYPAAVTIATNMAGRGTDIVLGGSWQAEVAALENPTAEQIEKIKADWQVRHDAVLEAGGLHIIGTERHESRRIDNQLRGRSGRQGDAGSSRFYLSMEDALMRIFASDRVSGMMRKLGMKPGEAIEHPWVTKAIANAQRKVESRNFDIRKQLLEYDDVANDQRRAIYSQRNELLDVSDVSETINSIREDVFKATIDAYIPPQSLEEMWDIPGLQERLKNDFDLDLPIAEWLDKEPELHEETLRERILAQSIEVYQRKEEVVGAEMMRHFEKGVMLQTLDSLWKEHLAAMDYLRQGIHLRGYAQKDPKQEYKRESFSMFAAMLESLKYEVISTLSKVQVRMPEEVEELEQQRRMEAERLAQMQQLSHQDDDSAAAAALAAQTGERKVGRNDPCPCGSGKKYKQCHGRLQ
Results with a measured potency or affinity are listed apart.
Percent Effect overview
Record the value in %, omitting the unit from your answer.

Consider the following illustrative entries.
molecule: C=Cc1ccc(C(=O)N2CCCC(Nc3ccc(OC)cc3)C2)cc1 (configuration not stated)
Percent Effect, %: -0.54

molecule: COCCN1CCC(NCc2ccc(C#N)cc2)C1 (configuration not stated)
Percent Effect, %: -8.38

molecule: CSCc1cccc(S(=O)(=O)N2CCC(C)CC2)c1
Percent Effect, %: -5.58

input: Would you kindly share the measured Percent Effect for Cc1cncc(C2CCCN(C(=O)c3scnc3C)C2)n1 (configuration not stated) ?
output: -5.85

input: Would you kindly share the measured Percent Effect for COc1cccc(-n2c(C)cc(C(=O)NS(C)(=O)=O)c2C)c1 ?
output: -2.83

input: Would you kindly share the measured Percent Effect for CC(=O)N(Cc1noc(C)n1)C1CCN(Cc2cc(C)on2)C1 (configuration not stated) ?
output: -2.56

input: Would you kindly share the measured Percent Effect for Cc1ccc(C(C)NC(=O)Cc2c(C)nc3c(c2C)c(=O)[nH]n3C)o1 (configuration not stated) ?
output: -4.2

input: Would you kindly share the measured Percent Effect for CC(C)c1nnc2ccc(N3CCC(C(N)=O)CC3)nn12 ?
output: -7.89

input: Would you kindly share the measured Percent Effect for Cn1c(Cn2cccn2)nnc1C1CCN(Cc2cccnc2N)CC1 ?
output: -8.22

input: Would you kindly share the measured Percent Effect for Cc1nonc1CC(=O)N1C[C@@H]2CC[C@H](C1)N(Cc1ccccc1)C2=O ?
output: -5.85

input: Would you kindly share the measured Percent Effect for Cc1nc(C2CCCN2C(=O)c2cc3c(s2)CCCC3)no1 (configuration not stated) ?
output: -3.05

input: Would you kindly share the measured Percent Effect for Cc1ccc(S(=O)(=O)N2CSCC2C(=O)N(C)C2CC2)cc1Cl (configuration not stated) ?
output: -5.45
